# ASSAY SYSTEM: CYP3A4 (Homo sapiens, UniProt P08684)
# Construct: from tissue; host or cells: human subjects in vivo
# Sequence (P08684 whole entry): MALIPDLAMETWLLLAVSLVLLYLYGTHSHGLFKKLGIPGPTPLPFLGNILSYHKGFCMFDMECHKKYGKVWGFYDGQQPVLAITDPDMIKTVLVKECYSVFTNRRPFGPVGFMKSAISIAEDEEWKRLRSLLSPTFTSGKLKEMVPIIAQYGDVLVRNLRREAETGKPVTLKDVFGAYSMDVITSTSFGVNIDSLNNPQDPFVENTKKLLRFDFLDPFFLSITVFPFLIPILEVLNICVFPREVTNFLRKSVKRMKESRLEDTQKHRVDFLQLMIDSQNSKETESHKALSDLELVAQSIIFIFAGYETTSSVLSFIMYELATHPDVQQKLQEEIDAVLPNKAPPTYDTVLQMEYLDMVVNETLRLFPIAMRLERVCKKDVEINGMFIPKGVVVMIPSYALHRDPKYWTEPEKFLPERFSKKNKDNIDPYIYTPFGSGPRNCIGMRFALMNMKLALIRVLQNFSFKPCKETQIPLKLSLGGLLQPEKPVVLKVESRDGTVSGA
# PROCEDURE DETAILS: Phase 1a study Stage 3: drug-drug interaction with itraconazole (effect of CYP3A4 inhibition)
# Assay type: in vivo
# ASSAY CONTEXT: human, plasma, oral; Compound 2 25 mg fasted + itraconazole; arithmetic mean (CV %), N = 11
TEST READOUT: AUC(0-inf) (ng·h/mL)

                                   compound  readout_value
0  NC(=O)[C@H]1CCN(c2ncnc(N)c2F)C[C@@H]1N1CCC[C@@H](Nc2cc(Cl)cc(C(F)(F)F)c2)C1=O [Compound 2]          32200

###

# ASSAY SYSTEM: CYP3A4 (Homo sapiens, UniProt P08684)
# Construct: from tissue; host or cells: human subjects in vivo
# PROCEDURE DETAILS: Phase 1a study Stage 3: drug-drug interaction with itraconazole (effect of CYP3A4 inhibition)
# Assay type: in vivo
# ASSAY CONTEXT: human, plasma, oral; Compound 2 25 mg fasted; arithmetic mean (CV %)
TEST READOUT: AUC(0-inf)

>>> df
                           substance_smiles  readout_value
0  NC(=O)[C@H]1CCN(c2ncnc(N)c2F)C[C@@H]1N1CCC[C@@H](Nc2cc(Cl)cc(C(F)(F)F)c2)C1=O   4620 ng·h/mL

###

# PROCEDURE DETAILS: Single-dose PK in rat
# Format: in vivo, male Sprague Dawley rats
# ASSAY CONTEXT: male, Sprague Dawley, plasma, 5 mg/kg, PO, dose 5, 0.1% CMC/0.2% Tween, free base measured
TEST READOUT: AUC(0-inf)

In [3]: df
Out[3]:
                                   molecule  readout_value
0  NC(=O)[C@H]1CCN(c2ncnc(N)c2F)C[C@@H]1N1CCC[C@@H](Nc2cc(Cl)cc(C(F)(F)F)c2)C1=O [Compound 2]  14600 ng·h/mL

###

# PROCEDURE DETAILS: Phase 1a single-dose study in humans, Stage 1: pharmacokinetics
# Type: in vivo, human
# ASSAY CONTEXT: both sexes, human, plasma, oral; Cohort 1 (50 mg); mean (SD); read-out: AUC0-24
TEST READOUT: AUC(0-t)

>>> print(df.to_string())
                                   compound  test_readout  readout_value
0  NC(=O)[C@H]1CCN(c2ncnc(N)c2F)C[C@@H]1N1CCC[C@@H](Nc2cc(Cl)cc(C(F)(F)F)c2)C1=O [Compound 1]      AUC(0-t)   7830 ng·h/mL

###

# PROCEDURE DETAILS: Phase 1a single-dose study in humans, Stage 1: pharmacokinetics
# Assay type: in vivo, human
# ASSAY CONTEXT: both sexes, human, plasma, oral; Cohort 3 (200 mg); mean (SD)
TEST READOUT: Vd/F (L)

In [3]: df
Out[3]:
                           substance_smiles  test_readout  readout_value
0  NC(=O)[C@H]1CCN(c2ncnc(N)c2F)C[C@@H]1N1CCC[C@@H](Nc2cc(Cl)cc(C(F)(F)F)c2)C1=O          Vd/F            118
